Compound | melting point
Cl.O=C(O)c1cn([C@@H]2C[C@@H]2F)c2c(F)c(N3C[C@@H]4NCCO[C@@H]4C3)c(F)cc2c1=O | 275 to 280 °C (dec.)
Cl.O=C(O)c1cn([C@@H]2C[C@@H]2F)c2c(Cl)c(N3C[C@@H]4NCCO[C@@H]4C3)c(F)cc2c1=O | 210 to 215 °C (dec.)
O=C(O)c1cn([C@@H]2C[C@H]2F)c2cc(N3C[C@@H]4NCCO[C@@H]4C3)c(F)cc2c1=O (mixture of isomers) [Example 19] | 270 to 274 °C (dec.)
O=C(O)c1cn([C@@H]2C[C@H]2F)c2nc(N3C[C@@H]4NCCO[C@@H]4C3)c(F)cc2c1=O (mixture of isomers) [Example 21] | 310 to 314 °C (dec.)
O=C(O)c1cn([C@@H]2C[C@@H]2F)c2cc(N3C[C@@H]4NCCO[C@@H]4C3)c(F)cc2c1=O (mixture of isomers) [Example 15] | 236 to 238 °C (dec.)
